- Test system: SF-268 CNS
- procedure-text: NCI tumour cell line growth inhibition, 48 h
Task for the reader: assign each of the following compounds its reported GI50.

Fill in the blank: the reported GI50 of C[C@@]1(C(=O)O)CCC[C@]2(C)C1CC[C@@]13CC(=O)[C@@](CO)(CC[C@]12O)C3 (some centres undefined) is ____.
> 100 µM

Fill in the blank: the reported GI50 of CCOC(=O)/C(C=Nc1ccc(-c2nc3ccccc3[nH]2)cc1)=C(/C)O is ____.
11.7 µM

Fill in the blank: the reported GI50 of COc1ccc(C(=S)N2CCN(c3cccc(C)c3)CC2)cc1OC is ____.
6.18 µM

Fill in the blank: the reported GI50 of O=C(CCCCCCNC(=O)c1cnc(N(c2ccccc2)c2ccccc2)nc1)NO is ____.
3.77 µM

====

Task for the reader: assign each of the following molecules its reported TGI.
- Tested on: DMS 273 small cell lung
- procedure-text: NCI tumour cell line growth inhibition, 48 h

Fill in the blank: the reported TGI of CN(/N=C/c1cccc2cccnc12)c1ccc([N+](=O)[O-])cc1[N+](=O)[O-] is ____.
> 55.7 µM

Fill in the blank: the reported TGI of CC1=C(c2ccccc2)C(c2ccccc2)=C(c2ccccc2)C2(c3ccccc3)C(=O)C(C)CN12 (stereo not drawn) is ____.
> 100 µM

Fill in the blank: the reported TGI of CCOC(=O)C12CCCC1(O)N(NC(=O)OC(C)(C)C)C(C)=C2C(=O)OC (stereo not drawn) is ____.
> 100 µM

====

Task for the reader: assign each of the following compounds its reported TGI.
- System: NCI-H226 lung
- procedure-text: NCI tumour cell line growth inhibition, 48 h

Notebook entry, NCI-H226 lung assay: TGI of O=C1NCC(CSc2nc3cc(C4CCCc5c4[nH]c4ccccc54)ccc3o2)N1 (stereo unspecified) = ?
> 100 µM

Notebook entry, NCI-H226 lung assay: TGI of Cc1cc(-c2cccc3ccccc23)c(C#N)c(=S)n1C1OC(CO)C(O)C(O)C1O (stereo unspecified) = ?
> 100 µM

Notebook entry, NCI-H226 lung assay: TGI of O=c1[nH]nc(-c2ccccc2)n1Nc1ccccc1 = ?
> 100 µM

Notebook entry, NCI-H226 lung assay: TGI of OC(Cc1ccncc1)C(Cl)(Cl)Cl (stereo unspecified) = ?
> 100 µM

Notebook entry, NCI-H226 lung assay: TGI of O=C1C(Cl)=C(Nc2cccc(Cl)c2)C(=O)N1Cc1ccc(Cl)cc1 = ?
1.37 µM

Notebook entry, NCI-H226 lung assay: TGI of Brc1ccc(C2CC(c3cccc4ccccc34)=Nc3ccccc3S2)cc1 (stereo unspecified) = ?
> 100 µM

Notebook entry, NCI-H226 lung assay: TGI of C=CCNC(=O)N(CCCCC(NC(C)=O)C(=O)NCc1ccccc1)Cc1ccccc1 (stereo unspecified) = ?
> 100 µM

Notebook entry, NCI-H226 lung assay: TGI of COc1ccc(C(=S)N2CCN(c3cccc(C)c3)CC2)cc1OC = ?
> 100 µM

Notebook entry, NCI-H226 lung assay: TGI of N#CN=[N+]([O-])c1ccc(C(=O)O)cc1 = ?
40.9 µM

Notebook entry, NCI-H226 lung assay: TGI of OC1c2ccccc2CC12Cc1ccccc1C2 (stereo unspecified) = ?
25.1 µM

Notebook entry, NCI-H226 lung assay: TGI of CCN(C(=O)N[C@@H](Cc1ccccc1)C(=O)N[C@@H](CC(C)C)C(=O)OC)c1ccccc1 = ?
47.6 µM

====

- Tested on: LXFL 529 NSCLC
- procedure-text: NCI tumour cell line growth inhibition, 48 h
Task for the reader: assign each of the following molecules its reported TGI.

Fill in the blank: the reported TGI of CCN(CC)CCNc1ccc2nnn3c4ccc(C)cc4c(=O)c1c23 is ____.
24.5 µM

Fill in the blank: the reported TGI of CC1=C(c2ccccc2)C(c2ccccc2)=C(c2ccccc2)C2(c3ccccc3)C(=O)C(C)CN12 (centres undefined) is ____.
> 100 µM

Fill in the blank: the reported TGI of COC1=C(N)C(=O)c2nc(C)ccc2C1=O is ____.
6.21 µM

Fill in the blank: the reported TGI of Cc1ccc(NCC(=O)N2CC(=O)Nc3ccccc32)c(C)c1 is ____.
> 100 µM

Fill in the blank: the reported TGI of CN(/N=C/c1cccc2cccnc12)c1ccc([N+](=O)[O-])cc1[N+](=O)[O-] is ____.
> 100 µM

Fill in the blank: the reported TGI of O=C(O)CCC(=O)N1c2ccccc2CC1c1c[nH]c2ccccc12 (centres undefined) is ____.
> 100 µM

Fill in the blank: the reported TGI of C/C(N=NS(=O)(=O)c1ccccc1)=C1\C=CC=CN1O is ____.
> 100 µM

Fill in the blank: the reported TGI of BrC1=CCC23CC=C(Br)[C@H]4CC2(COC3)C[C@@H]1O4 (some centres undefined) is ____.
> 100 µM

Fill in the blank: the reported TGI of COc1cc(Br)c(C=Nc2cccc3cc(OC)c(OC)cc23)cc1OC is ____.
> 100 µM

Fill in the blank: the reported TGI of COc1ccc(/C=N/N=C(\N)NO)cc1O is ____.
> 100 µM

Fill in the blank: the reported TGI of C/C(=N\NC(=S)N1CC2CCC(CC2)C1)c1nccs1 is ____.
15.8 µM

Fill in the blank: the reported TGI of CS(=O)(=O)OC1CCC2(C#N)CCC1C2=O (centres undefined) is ____.
> 100 µM

Fill in the blank: the reported TGI of Cc1c2ccncc2c(C)c2c1[nH]c1ccc(OC(C)C)cc12 is ____.
2.1 µM

Fill in the blank: the reported TGI of CSC(=Nc1nnc(-c2ccc([N+](=O)[O-])cc2)s1)SC is ____.
> 100 µM

====

Task for the reader: assign each of the following molecules its reported TGI.
- Test system: A549 NSCLC
- procedure-text: NCI tumour cell line growth inhibition, 48 h

Fill in the blank: the reported TGI of O=C(O)Cc1c(-c2ccc([N+](=O)[O-])cc2)c(=O)oc2cc(O)ccc12 is ____.
> 100 µM

Fill in the blank: the reported TGI of CCN(CC)CCNc1ccc2nnn3c4ccc(C)cc4c(=O)c1c23 is ____.
19.3 µM

Fill in the blank: the reported TGI of O/N=C1/C(=C/c2ccc3c(c2)OCO3)CCCC1C(NO)c1ccc2c(c1)OCO2 (stereo not drawn) is ____.
95.4 µM

Fill in the blank: the reported TGI of CCN1C(=O)N(CC)C2C1NN=c1s/c(=C\c3cccc(F)c3)c(=O)n12 (stereo not drawn) is ____.
> 100 µM

Fill in the blank: the reported TGI of CCN(CC)c1c(C(=O)/C=C/c2ccc(Cl)cc2)c(-c2ccccc2)nn(C)c1=O is ____.
3.89 µM

Fill in the blank: the reported TGI of C=C(C)[C@@H]1CC[C@]2(C)CC[C@]3(C)[C@H](CC[C@@H]4[C@@]5(C)CC[C@H](O)C(C)(C)[C@@H]5CC[C@]43C)[C@@H]12 is ____.
> 100 µM

Fill in the blank: the reported TGI of O=C(O)CCN(CCCCN(CCC(=O)O)CCC(=O)O)CCC(=O)O is ____.
> 100 µM

Fill in the blank: the reported TGI of O=C1C(Cl)=C(Nc2cccc(F)c2)C(=O)N1Cc1ccc(Cl)cc1 is ____.
16.9 µM

Fill in the blank: the reported TGI of CN1CN(c2ccccc2)C2(CCN(Cc3csc4ccccc34)CC2)C1=O is ____.
74 µM

Fill in the blank: the reported TGI of CCOC(=O)NC(Nc1ncccn1)(C(=O)OCC)C(F)(F)F (stereo not drawn) is ____.
> 100 µM

Fill in the blank: the reported TGI of O=C1N(C2CCCCC2)CC12CCCCC2 is ____.
> 100 µM

Fill in the blank: the reported TGI of O=c1cc(-c2ccccc2)c2ccccc2[nH]1 is ____.
> 100 µM

Fill in the blank: the reported TGI of C=CCOc1cc(NC(=S)c2ccoc2C)ccc1OC is ____.
> 100 µM

Fill in the blank: the reported TGI of NCCCOc1ccc([N+](=O)[O-])cc1Cl is ____.
> 100 µM

Fill in the blank: the reported TGI of CC(C)Oc1c(O)c2c3c(oc(=O)n3C=CC2c2ccccc2)c1OC(C)C (stereo not drawn) is ____.
92.1 µM

Fill in the blank: the reported TGI of CCN1CCC(O)(c2ccc(Oc3ccccc3)cc2)C(C(=O)c2ccc(Oc3ccccc3)cc2)C1 (stereo not drawn) is ____.
27.5 µM

Fill in the blank: the reported TGI of CN(/N=C/c1cccc2cccnc12)c1ccc([N+](=O)[O-])cc1[N+](=O)[O-] is ____.
> 100 µM

Fill in the blank: the reported TGI of O=C(Oc1cccc(F)c1OC(=O)c1cccc(O)c1)c1cccc(O)c1 is ____.
> 100 µM

Fill in the blank: the reported TGI of O=C(c1ccccc1)n1c(Cc2ccccc2)nc2cc(C34CC5CC(CC(C5)C3)C4)ccc21 is ____.
> 100 µM

Fill in the blank: the reported TGI of O=[N+]([O-])c1ccc(C[P+](c2ccccc2)(c2ccccc2)c2ccccc2)cc1 is ____.
> 100 µM

Fill in the blank: the reported TGI of CCOC(=O)c1cc(=O)c2ccnc3c2n1CCS3 is ____.
> 100 µM

Fill in the blank: the reported TGI of C[C@H](NC(=O)[C@@H](C)N)[C@H](Oc1ccc2c(cnn2-c2ccc(F)cc2)c1)c1ccc2c(c1)OCCO2 is ____.
12.6 µM

Fill in the blank: the reported TGI of COC(=O)NC(=O)c1cn(C2OC(CO)C(O)C2O)c(=O)[nH]c1=O (stereo not drawn) is ____.
> 100 µM

Fill in the blank: the reported TGI of C=CCNC(=O)N(CCCCC(NC(C)=O)C(=O)NCc1ccccc1)Cc1ccccc1 (stereo not drawn) is ____.
> 100 µM

Fill in the blank: the reported TGI of COc1ccc2nc3cc(Cl)ccc3c(NCCNC(=O)Cn3c(=O)n(C)c(=O)c4c3nc3c(c(=O)n(C)c(=O)n3C)[n+]4[O-])c2c1 is ____.
> 100 µM

Fill in the blank: the reported TGI of COc1c2cc(C(C)(C)C)cc1Cc1cccc(c1OCc1cccc([N+](=O)[O-])c1)Cc1cc(C(C)(C)C)cc(c1OC)Cc1cccc(c1OCc1cccc([N+](=O)[O-])c1)Cc1cc(C(C)(C)C)cc(c1OC)Cc1cccc(c1OCc1cccc([N+](=O)[O-])c1)C2 is ____.
> 50 µM

Fill in the blank: the reported TGI of CC(=O)c1ccc2c(c1)c1c(C)c3c[n+](C)ccc3c(C)c1n2C is ____.
> 100 µM

Fill in the blank: the reported TGI of CC1(C)C2CCC13C(=O)C1OC3(C2)C2C(=O)c3cc4ccccc4cc3C(=O)C12 (stereo not drawn) is ____.
76.3 µM

Fill in the blank: the reported TGI of CC1(C)C2C=C(CCN3CCOCC3)CC1C2 (stereo not drawn) is ____.
> 100 µM

Fill in the blank: the reported TGI of O=C1Nc2ccccc2C1=Nc1cccc2ncccc12 is ____.
> 100 µM

Fill in the blank: the reported TGI of BrC1=CCC23CC=C(Br)[C@H]4CC2(COC3)C[C@@H]1O4 (stereo partly drawn) is ____.
> 100 µM

Fill in the blank: the reported TGI of N.N.N.N.N.NC(=O)c1nn[n-]n1.[Cl-].[Co+3] is ____.
> 100 µM

Fill in the blank: the reported TGI of Oc1c(-c2nnc(-c3ccccc3Cl)o2)sc2nnc(-c3ccccc3)c(-c3ccccc3)c12 is ____.
61.5 µM

Fill in the blank: the reported TGI of COc1ccc(/C=N/N=C(\N)NO)cc1O is ____.
> 100 µM

Fill in the blank: the reported TGI of Cc1cc(-c2cccc3ccccc23)c(C#N)c(=S)n1C1OC(CO)C(O)C(O)C1O (stereo not drawn) is ____.
> 100 µM

Fill in the blank: the reported TGI of CN(O)C(=O)SCC(NC(=O)CCC(N)C(=O)O)C(=O)NCC(=O)O (stereo not drawn) is ____.
> 2000 µM

Fill in the blank: the reported TGI of C=C1C(=O)O[C@H]2[C@H]1CC/C(COC(=O)CSCSCC(=O)OC/C1=C/CC[C@@]3(C)O[C@H]3[C@H]3OC(=O)C(=C)[C@@H]3CC1)=C\CC[C@@]1(C)O[C@@H]21 is ____.
6.23 µM

Fill in the blank: the reported TGI of CC1=C(C(=O)Nc2cc(=O)n(C)c(=O)n2C)C(c2ccco2)C(C(=O)Nc2cc(=O)n(C)c(=O)n2C)=C(C)N1 is ____.
> 100 µM

FYI, the data here is from PubChem BioAssay (NCI).
